target_or_system: FGFR1 active kinase (Homo sapiens)
procedure_text: FGFR Kinase assay - Caliper
Assay type: biochemical
stated_conditions: footnote example; read-out: FGFR Kinase assay - Caliper, value in table footnote
pIC50: −log10 of the molar value.
measured_parameter: pIC50

> print(dat)
                              record.smiles  measured.parameter   val
1  COc1cccc(CCc2cc(NC(=O)c3ccc(OC)nc3)[nH]n2)c1               pIC50  6.21

###

# key: entry, value: IC50
target_or_system: FGFR1 active kinase (Homo sapiens)
procedure_text: FGFR Kinase assay - Caliper Echo Dosing
Assay type: biochemical
stated_conditions: FGFR1 7.2 nM, 408 uM ATP, acoustic dosing; geometric mean of n
measured_parameter: IC50 (nM)

> print(dat)
                                   molecule  measured.parameter    val
1  CCN(CC)C1CCN(c2cnc(C(=O)Nc3cc(CCc4cc(OC)cc(OC)c4)n[nH]3)cn2)C1 (stereo not shown)                IC50    2.9
2  C=CCN1CCC(c2ccc(C(=O)Nc3cc(CCc4cc(OC)cc(OC)c4)n[nH]3)cc2)CC1                IC50  0.041
3  CCN1CCN(c2ccc(C(=O)Nc3cc(OCc4cc(OC)cc(OC)c4)n[nH]3)s2)CC1                IC50   0.86
4  COc1cc(CCc2cc(NC(=O)c3cnc(C4=CCN(C)CC4)cn3)[nH]n2)cc(OC)c1                IC50   0.82

###

target_or_system: FGFR1 active kinase (Homo sapiens, UniProt P11362)
Sequence (P11362 22-822): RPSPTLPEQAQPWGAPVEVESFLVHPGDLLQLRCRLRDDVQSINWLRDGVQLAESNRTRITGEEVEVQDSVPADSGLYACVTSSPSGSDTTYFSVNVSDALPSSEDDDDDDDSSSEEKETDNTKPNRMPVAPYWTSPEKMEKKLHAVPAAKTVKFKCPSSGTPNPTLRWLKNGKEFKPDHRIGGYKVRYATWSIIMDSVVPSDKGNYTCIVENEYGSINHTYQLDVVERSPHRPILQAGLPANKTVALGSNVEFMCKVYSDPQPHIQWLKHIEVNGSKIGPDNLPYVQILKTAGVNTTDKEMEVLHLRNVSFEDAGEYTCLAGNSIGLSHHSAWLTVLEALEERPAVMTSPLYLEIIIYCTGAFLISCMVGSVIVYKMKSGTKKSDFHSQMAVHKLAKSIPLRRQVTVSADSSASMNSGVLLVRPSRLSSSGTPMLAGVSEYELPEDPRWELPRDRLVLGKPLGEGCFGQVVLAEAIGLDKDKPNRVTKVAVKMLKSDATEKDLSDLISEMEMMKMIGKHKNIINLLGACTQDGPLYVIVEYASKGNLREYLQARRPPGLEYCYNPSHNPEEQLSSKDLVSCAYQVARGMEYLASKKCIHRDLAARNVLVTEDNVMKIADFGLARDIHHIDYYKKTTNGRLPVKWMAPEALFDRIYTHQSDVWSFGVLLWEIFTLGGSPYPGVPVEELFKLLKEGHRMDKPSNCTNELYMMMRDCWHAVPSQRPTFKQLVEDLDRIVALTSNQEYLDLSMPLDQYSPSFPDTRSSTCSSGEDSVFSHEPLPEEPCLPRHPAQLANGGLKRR
procedure_text: FGFR Kinase assay - Caliper; on FGFR Kinase assay - Caliper, IC50: 408 µM ATP
Type: biochemical
stated_conditions: FGFR1 […], 408 uM ATP; mean of n as printed; read-out: FGFR Kinase assay - Caliper, IC50
Counter-ions that a name gives are not always drawn.
measured_parameter: IC50

> print(dat)
                                    compound      val
 1  COc1cc(COc2cc(NC(=O)c3ccc(NCCN(C)C)cc3)[nH]n2)cc(OC)c1 [Example 70, Hydrochloride]    31 nM
 2  CCNc1ccc(C(=O)Nc2cc(CCc3cccc(OC)c3)n[nH]2)cn1 [Example 18]   540 nM
 3  COc1cccc(CCc2cc(NC(=O)c3ccc(C(=O)O)nc3)[nH]n2)c1 [Example 66]  1020 nM
 4  COc1cccc(CCc2cc(NC(=O)c3cc(O)ccn3)[nH]n2)c1 [Example 64]  5000 nM
 5  COc1cc(CCc2cc(NC(=O)c3ccc(CN(C)C)cc3)n[nH]2)cc(OC)c1 [Example 47]    19 nM
 6  COc1cc(CCc2cc(NC(=O)c3ccc(N4CCN(C)C(C)C4)cc3)n[nH]2)cc(OC)c1 (centres unmarked) [Example 81]    40 nM
 7  CCOCCOc1ccc(C(=O)Nc2cc(CCc3cc(OC)cc(OC)c3)[nH]n2)cc1 [Example 42]    75 nM
 8  COc1cccc(CCc2cc(NC(=O)c3ccc(OC)nc3)[nH]n2)c1 [Example 14]   610 nM
 9  COc1cccc(CCc2cc(NC(=O)c3ccc(CO)cc3)[nH]n2)c1 [Example 28]    74 nM
10  COc1cc(CCc2cc(NC(=O)c3ccc(N4CCN(C5CC5)CC4)cc3)n[nH]2)cc(OC)c1 [Example 88]   156 nM
11  COc1cc(COc2cc(NC(=O)c3cccc(N4CCNCC4)c3)n[nH]2)cc(OC)c1 [Example 74]   130 nM
12  COc1cccc(CCc2cc(NC(=O)c3ccc(C#N)nc3)[nH]n2)c1 [Example 63]  3770 nM
13  COc1cc(CCc2cc(NC(=O)c3ccc(N4CCOCC4)cc3)[nH]n2)cc(OC)c1 [Example 4]    68 nM
14  COc1cccc(CCc2cc(NC(=O)c3ccc(C)nc3)[nH]n2)c1 [Example 13]   950 nM
15  COc1cc(CCc2cc(NC(=O)c3ccc(N4CCN5CCCCC5C4)cc3)[nH]n2)cc(OC)c1 (centres unmarked) [Example 94]    81 nM
16  COc1cc(CCc2cc(NC(=O)c3ccc(C4CCNCC4)cc3)n[nH]2)cc(OC)c1 [Example 58]     1 nM
17  COc1ccc(C(=O)Nc2cc(OCc3cc(OC)cc(OC)c3)n[nH]2)cc1 [Example 71]   157 nM

The origin of these recorded values is patent US10301267B2.
